Reference source for all entries: patent US20250059171A1

experimental-system: MERS-CoV 3CLpro (Middle East respiratory syndrome-related coronavirus, UniProt K9N7C7)
Sequence (K9N7C7 3248-3553): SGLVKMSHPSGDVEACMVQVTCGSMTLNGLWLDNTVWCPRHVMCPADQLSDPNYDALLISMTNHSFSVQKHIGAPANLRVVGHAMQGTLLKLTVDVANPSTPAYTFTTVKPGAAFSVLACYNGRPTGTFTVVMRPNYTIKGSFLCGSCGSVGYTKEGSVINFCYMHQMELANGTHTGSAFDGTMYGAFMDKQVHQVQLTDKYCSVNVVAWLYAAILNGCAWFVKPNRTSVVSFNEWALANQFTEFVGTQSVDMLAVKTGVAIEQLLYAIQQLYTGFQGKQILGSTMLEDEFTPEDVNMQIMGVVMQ
The label is class 1 for IC50 below 100 nM and class 0 for IC50 equal to or exceeding 100 nM.

INSERT INTO assay_data (compound, answer_label) VALUES
  ('CC[C@H](C)[C@H](NC(=O)[C@H](F)Cl)C(=O)N1C[C@H]2[C@@H]([C@H]1C(=O)NN(C[C@H]1CCCNC1=O)C(=O)[C@H](F)Cl)C2(C)C', 'class 0'),
  ('CC1([C@H](NC(=O)C(F)(F)F)C(=O)N2CC3(CC3)C[C@H]2C(=O)NN(C[C@@H]2CCNC2=O)C(=O)[C@H](F)Cl)CC1', 'class 0'),
  ('CC(C)(C)[C@H](NC(=O)C1(F)CC1)C(=O)N1C[C@@H]2CCC[C@@H]2[C@H]1C(=O)NN(C[C@@H]1CCNC1=O)C(=O)[C@H](F)Cl', 'class 1'),
  ('CCC(C)(C)[C@H](NC(=O)C1CC1)C(=O)N1C[C@@H]2CCC[C@@H]2[C@H]1C(=O)NN(C[C@@H]1CCCNC1=O)C(=O)[C@H](F)Cl [Example 167a]', 'class 0'),
  ('CCC(C)(C)[C@H](NC(=O)C(F)F)C(=O)N1C[C@@H]2CCC[C@@H]2[C@H]1C(=O)NN(C[C@@H]1CCCNC1=O)C(=O)[C@H](F)Cl', 'class 0');

* * *

Target or system HCoV-229E 3CLpro (Human coronavirus 229E): recorded pIC50 listed per item.
pIC50: −log10 of the molar value.
measured-property: pIC50

INSERT INTO assay_data (mol, result_number) VALUES
  ('CC(=O)N[C@H](C(=O)N1C[C@@H]2CCC[C@@H]2[C@H]1C(=O)NN(C[C@@H]1CCNC1=O)C(=O)[C@H](F)Cl)C(C)(C)C', 7.55),
  ('CC(C)(C)[C@H](Nc1ncncc1F)C(=O)N1C[C@@H]2CCC[C@@H]2[C@H]1C(=O)NN(C[C@@H]1CCNC1=O)C(=O)[C@H](F)Cl', 7.23),
  ('CC[C@@H](C)[C@H](NC(=O)C1(F)CC1)C(=O)N1C[C@H]2[C@@H]([C@H]1C(=O)NN(C[C@@H]1CCNC1=O)C(=O)[C@H](F)Cl)C2(C)C', 7.52),
  ('CC[C@H](C)[C@H](NC(=O)C(Cl)Cl)C(=O)N1C[C@H]2[C@@H]([C@H]1C(=O)NN(C[C@@H]1CCNC1=O)C(=O)[C@H](F)Cl)C2(C)C', 7.52),
  ('CC[C@H](C)[C@H](NC(=O)C(F)F)C(=O)N1C[C@H]2[C@@H]([C@H]1C(=O)NN(C[C@@H]1CCNC1=O)C(=O)[C@@H](F)Cl)C2(C)C', 7.54);

* * *

experimental-system: MERS-CoV 3CLpro (Middle East respiratory syndrome-related coronavirus, UniProt K9N7C7)
test-description: biochemical
pIC50: −log10 of the molar value.
# pIC50 per entry
measured-property: pIC50

INSERT INTO assay_data (compound, result_number) VALUES
  ('CC[C@H](C)[C@H](NC(=O)[C@@H](F)Cl)C(=O)N1C[C@H]2[C@@H]([C@H]1C(=O)NN(C[C@@H]1CCCNC1=O)C(=O)[C@@H](F)Cl)C2(C)C', 7.30),
  ('CCC(CC)[C@H](NC(=O)C1CC1)C(=O)N1C[C@H]2[C@@H]([C@H]1C(=O)NN(C[C@@H]1CCCNC1=O)C(=O)[C@H](F)Cl)C2(C)C', 6.73),
  ('CCC(CC)[C@H](NC(=O)C(C)F)C(=O)N1CC(C)(C)C[C@H]1C(=O)NN(C[C@@H]1CCNC1=O)C(=O)[C@H](F)Cl (mixture of isomers)', 6.72),
  ('CC[C@H](C)[C@H](NC(=O)C(F)F)C(=O)N1C[C@H]2[C@@H]([C@H]1C(=O)NN(C[C@@H]1CCCNC1=O)C(=O)[C@H](F)Cl)C2(C)C', 7.02),
  ('CC(C)(C)[C@H](NC(=O)C(F)(F)F)C(=O)N1C[C@H]2[C@@H]([C@H]1C(=O)NN(C[C@H]1CCCNC1=O)C(=O)[C@H](F)Cl)C2(C)C (single isomer, unassigned) [Example 163a]', 6.65);

* * *

experimental-system: HCoV-229E 3CLpro (Human coronavirus 229E)
Sequence (P0C6X1 2966-3267): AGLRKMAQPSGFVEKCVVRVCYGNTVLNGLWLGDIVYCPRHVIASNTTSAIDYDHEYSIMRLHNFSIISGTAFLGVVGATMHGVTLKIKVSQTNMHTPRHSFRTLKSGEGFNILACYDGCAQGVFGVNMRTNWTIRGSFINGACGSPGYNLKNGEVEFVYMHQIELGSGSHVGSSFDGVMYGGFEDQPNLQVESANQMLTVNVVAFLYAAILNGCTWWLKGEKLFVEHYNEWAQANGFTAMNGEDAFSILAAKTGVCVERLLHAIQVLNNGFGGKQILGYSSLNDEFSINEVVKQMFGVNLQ
Items are presented alongside their recorded IC50.
measured-property: IC50 (nM)

INSERT INTO measurements (compound, unit_abbrev, result_number) VALUES
  ('CCC(C)(C)[C@H](NC(=O)C1(F)CC1)C(=O)N1C[C@H]2[C@@H]([C@H]1C(=O)NN(C[C@@H]1CCNC1=O)C(=O)[C@@H](F)Cl)C2(C)C', 'nM', 77),
  ('CC(C)(C)[C@H](NC(=O)[C@@H]1CC1(F)F)C(=O)N1C[C@@H]2CCC[C@@H]2[C@H]1C(=O)NN(C[C@@H]1CCCNC1=O)C(=O)[C@H](F)Cl', 'nM', 38),
  ('CC(C)C(=O)N[C@H](C(=O)N1C[C@@H]2CCC[C@@H]2[C@H]1C(=O)NN(C[C@@H]1CCNC1=O)C(=O)[C@H](F)Cl)C(C)(C)C', 'nM', 27),
  ('CCC(CC)[C@H](NC(=O)C1(F)CC1)C(=O)N1CC(C)(C)C[C@H]1C(=O)NN(C[C@@H]1CCNC1=O)C(=O)[C@H](F)Cl', 'nM', 54),
  ('CC(C)(C)[C@H](NC(=O)C1(F)CC1)C(=O)N1C[C@H]2[C@@H]([C@H]1C(=O)NN(C[C@@H]1CCNC1=O)C(=O)[C@H](F)Cl)C2(C)C', 'nM', 31),
  ('CC(C)C(=O)N[C@H](C(=O)N1CC2(CC2)C[C@H]1C(=O)NN(C[C@@H]1CCNC1=O)C(=O)[C@H](F)Cl)C(C)(C)C', 'nM', 127),
  ('CC[C@H](C)[C@H](NC(=O)C(C)C)C(=O)N1C[C@H]2[C@@H]([C@H]1C(=O)NN(C[C@@H]1CCNC1=O)C(=O)[C@@H](F)Cl)C2(C)C', 'nM', 37),
  ('CC[C@H](C)[C@H](NC(=O)C1CC1)C(=O)N1C[C@H]2[C@@H]([C@H]1C(=O)NN(C[C@@H]1CCNC1=O)C(=O)[C@H](F)Cl)C2(C)C', 'nM', 20),
  ('CC[C@H](C)[C@H](NC(=O)[C@@H](F)Cl)C(=O)N1C[C@@H]2CCC[C@@H]2[C@H]1C(=O)NN(C[C@H]1CCCNC1=O)C(=O)[C@@H](F)Cl', 'nM', 49),
  ('CCC(CC)[C@H](NC(=O)C(F)(F)F)C(=O)N1C[C@@H]2CCC[C@@H]2[C@H]1C(=O)NN(C[C@@H]1CCNC1=O)C(=O)[C@H](F)Cl', 'nM', 28),
  ('CC[C@@H](C)[C@H](NC(=O)C1CC1(F)F)C(=O)N1C[C@H]2[C@@H]([C@H]1C(=O)NN(C[C@@H]1CCNC1=O)C(=O)[C@@H](F)Cl)C2(C)C (mixture of isomers)', 'nM', 41);

* * *

experimental-system: SARS-CoV-2 3CLpro (Severe acute respiratory syndrome coronavirus 2, UniProt P0DTD1)
test-description: biochemical
measured-property: IC50 (µM)

INSERT INTO results (mol, result_number) VALUES
  ('CC1(C)[C@@H]2[C@@H](C(=O)NN(C[C@@H]3CCNC3=O)C(=O)[C@H](F)Cl)N(C(=O)/C=C/c3cc(C(F)(F)F)cc(C(F)(F)F)c3)C[C@@H]21', 0.491),
  ('CC[C@H](C)[C@H](NC(=O)[C@@H](F)Cl)C(=O)N1C[C@@H]2CCC[C@@H]2[C@H]1C(=O)NN(C[C@H]1CCCNC1=O)C(=O)[C@@H](F)Cl', 0.017),
  ('CCC(CC)[C@H](NC(=O)C1(F)CC1)C(=O)N1C[C@H]2[C@@H]([C@H]1C(=O)NN(C[C@@H]1CCNC1=O)C(=O)[C@@H](F)Cl)C2(C)C', 0.02);

* * *

pIC50: −log10 of the molar value.
A set of compounds tested on UniProt P0C6X7, with measured pIC50:
measured-property: pIC50

INSERT INTO measurements (compound, experimental_system, result_number) VALUES
  ('CCC(CC)[C@H](NC(=O)C(F)F)C(=O)N1C[C@@H]2CCC[C@@H]2[C@H]1C(=O)NN(C[C@@H]1CCNC1=O)C(=O)[C@H](F)Cl [Example 136]', 'UniProt P0C6X7', 7.82),
  ('CCC(C)(C)[C@H](NC(=O)C(F)F)C(=O)N1C[C@H]2[C@@H]([C@H]1C(=O)NN(C[C@@H]1CCNC1=O)C(=O)[C@@H](F)Cl)C2(C)C [Example 148]', 'UniProt P0C6X7', 7.70),
  ('CC(C)(C)[C@H](NC(=O)C1(F)CCC1)C(=O)N1C[C@H]2[C@@H]([C@H]1C(=O)NN(C[C@@H]1CCNC1=O)C(=O)[C@H](F)Cl)C2(C)C [Example 91]', 'UniProt P0C6X7', 7.82),
  ('CC(C)(C)[C@H](NC(=O)C1(F)CC1)C(=O)N1C[C@H]2[C@@H]([C@H]1C(=O)NN(C[C@@H]1CCNC1=O)C(=O)[C@H](F)Cl)C2(C)C [Example 83]', 'UniProt P0C6X7', 8.00),
  ('CC[C@H](C)[C@H](NC(=O)C1CC1(F)F)C(=O)N1C[C@H]2[C@@H]([C@H]1C(=O)NN(C[C@@H]1CCNC1=O)C(=O)[C@@H](F)Cl)C2(C)C (mixture of isomers) [Example 111]', 'UniProt P0C6X7', 7.55),
  ('CCC(C)(C)[C@H](NC(=O)C(F)F)C(=O)N1C[C@@H]2CCC[C@@H]2[C@H]1C(=O)NN(C[C@@H]1CCNC1=O)C(=O)[C@@H](F)Cl [Example 153]', 'UniProt P0C6X7', 7.82),
  ('CC[C@@H](C)[C@H](NC(=O)C1CC1)C(=O)N1C[C@H]2[C@@H]([C@H]1C(=O)NN(C[C@@H]1CCNC1=O)C(=O)[C@H](F)Cl)C2(C)C [Example 118]', 'UniProt P0C6X7', 7.74),
  ('CC(C)(C)[C@H](NC(=O)[C@@H]1CC1(F)F)C(=O)N1C[C@H](C(F)(F)F)C[C@H]1C(=O)NN(C[C@@H]1CCNC1=O)C(=O)[C@@H](F)Cl [Example 159]', 'UniProt P0C6X7', 7.89),
  ('CC[C@H](C)[C@H](NC(=O)[C@@H](F)Cl)C(=O)N1C[C@@H]2CCC[C@@H]2[C@H]1C(=O)NN(C[C@@H]1CCCNC1=O)C(=O)[C@@H](F)Cl [Example 191]', 'UniProt P0C6X7', 7.96),
  ('CC1(C)[C@@H]2[C@@H](C(=O)NN(C[C@@H]3CCNC3=O)C(=O)[C@H](F)Cl)N(C(=O)COc3cc(F)cc(F)c3)C[C@@H]21 [Example 17]', 'UniProt P0C6X7', 6.37),
  ('CCC(C)(C)[C@H](NC(=O)C1CC1)C(=O)N1C[C@@H]2CCC[C@@H]2[C@H]1C(=O)NN(C[C@@H]1CCCNC1=O)C(=O)[C@H](F)Cl [Example 167a]', 'UniProt P0C6X7', 7.82),
  ('CC(C)(C)[C@H](NC(=O)C(F)(F)F)C(=O)N1CCC(C)(C)[C@H]1C(=O)NN(C[C@@H]1CCNC1=O)C(=O)[C@H](F)Cl [Example 155a]', 'UniProt P0C6X7', 7.55),
  ('CC1(C)[C@@H]2[C@@H](C(=O)NN(C[C@@H]3CCNC3=O)C(=O)[C@H](F)Cl)N(C(=O)[C@H](Cc3ccccc3)NC(=O)C(F)(F)F)C[C@@H]21 [Example 20]', 'UniProt P0C6X7', 7.80),
  ('CC[C@H](C)[C@H](NC(=O)C(F)(F)F)C(=O)N1C[C@@H]2CCC[C@@H]2[C@H]1C(=O)NN(C[C@@H]1CCNC1=O)C(=O)[C@H](F)Cl [Example 48]', 'UniProt P0C6X7', 7.92),
  ('CC(C)(C)[C@H](NC(=O)C1(F)CC1)C(=O)N1C[C@@H]2CCC[C@@H]2[C@H]1C(=O)NN(C[C@@H]1CCNC1=O)C(=O)[C@H](F)Cl [Example 82]', 'UniProt P0C6X7', 7.92),
  ('CC[C@@H](C)[C@H](NC(=O)C1(F)CC1)C(=O)N1C[C@H]2[C@@H]([C@H]1C(=O)NN(C[C@@H]1CCNC1=O)C(=O)[C@H](F)Cl)C2(C)C [Example 115]', 'UniProt P0C6X7', 7.82),
  ('CC[C@@H](C)[C@H](NC(=O)C1CC1(F)F)C(=O)N1C[C@H]2[C@@H]([C@H]1C(=O)NN(C[C@@H]1CCNC1=O)C(=O)[C@H](F)Cl)C2(C)C (mixture of isomers) [Example 113]', 'UniProt P0C6X7', 7.82),
  ('CC[C@@H](C)[C@H](NC(=O)C1(F)CCC1)C(=O)N1C[C@H]2[C@@H]([C@H]1C(=O)NN(C[C@@H]1CCNC1=O)C(=O)[C@H](F)Cl)C2(C)C [Example 119]', 'UniProt P0C6X7', 7.70),
  ('CC(C)(C)[C@H](NC(=O)C(F)(F)C(F)(F)F)C(=O)N1C[C@@H]2CCC[C@@H]2[C@H]1C(=O)NN(C[C@@H]1CCNC1=O)C(=O)[C@H](F)Cl [Example 71]', 'UniProt P0C6X7', 8.00),
  ('CCCC(=O)N[C@H](C(=O)N1C[C@@H]2CCC[C@@H]2[C@H]1C(=O)NN(C[C@@H]1CCNC1=O)C(=O)[C@H](F)Cl)[C@@H](C)CC [Example 46]', 'UniProt P0C6X7', 7.54);
